target_system: furin, P09958;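 also: purified furin at 1:10 enzyme:substrate in 50 mM HEPES pH 7.5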
Sequence (P09958 whole entry): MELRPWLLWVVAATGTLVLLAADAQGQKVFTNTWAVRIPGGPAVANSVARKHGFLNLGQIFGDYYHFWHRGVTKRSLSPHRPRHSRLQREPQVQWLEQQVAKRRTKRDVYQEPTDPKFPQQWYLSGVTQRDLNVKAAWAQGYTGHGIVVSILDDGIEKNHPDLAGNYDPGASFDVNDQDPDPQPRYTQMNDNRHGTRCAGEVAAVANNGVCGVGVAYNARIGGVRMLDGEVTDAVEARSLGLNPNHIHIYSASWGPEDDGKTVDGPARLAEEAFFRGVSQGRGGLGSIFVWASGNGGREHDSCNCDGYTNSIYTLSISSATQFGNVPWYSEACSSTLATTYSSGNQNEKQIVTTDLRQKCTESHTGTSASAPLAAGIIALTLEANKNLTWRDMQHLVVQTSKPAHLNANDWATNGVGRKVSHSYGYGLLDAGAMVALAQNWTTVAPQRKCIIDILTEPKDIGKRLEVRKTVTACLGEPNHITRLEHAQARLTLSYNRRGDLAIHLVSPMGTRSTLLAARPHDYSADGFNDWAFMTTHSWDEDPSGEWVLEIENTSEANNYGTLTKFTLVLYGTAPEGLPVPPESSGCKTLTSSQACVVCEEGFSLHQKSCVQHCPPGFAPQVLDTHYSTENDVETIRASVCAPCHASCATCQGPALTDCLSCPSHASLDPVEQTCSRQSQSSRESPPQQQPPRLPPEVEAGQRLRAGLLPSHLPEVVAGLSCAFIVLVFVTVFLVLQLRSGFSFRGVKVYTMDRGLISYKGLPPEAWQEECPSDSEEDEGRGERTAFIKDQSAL
test_description: furin cleavage Z-score vs untreated control; higher = more cleavage, active = 3.5 or more, inactive = 1 or less, 8 variable residues between constant flanks
condition_context: 30 min
The list shows a part of the results. How many sequences the whole screen found active is unknown.
Classes based on furin cleavage Z-score: low: < 0.1; mid: ≥ 0.1 and < 2; high: ≥ 2

Please review the following examples before continuing.
CARRRKSASDAGNASASA [FS-2074] : mid
CATTPCSGSQAGNASASA [HC1942] : low
CAENLRKRRDAGNASASA [FS-585] : high
CARSKRSSSHAGNASASA [FS-2184] : high
CAILWRLKRQAGNASASA [FS-1215] : high
CAKKERRPRGAGNASASA [FS-671] : mid

Problem: Where would CARSKRCSCSAGNASASA [FS-2809] land among the classes by reported furin cleavage Z-score?
Result: mid

Problem: Let us now turn to CASTPCSAMLAGNASASA [HC2546]
Result: low

Problem: Let us now turn to CAISYRFPRGAGNASASA [FS-37]
Result: high

Taken from the supplement of paper PMC3545927.
